# System: HOP-62 NSCLC
# method-summary: NCI-60 one-dose screen, 48 h (100 = growth as untreated, 0 = no growth, -100 = all killed)
# measurement-conditions: 10 µM unless noted
This is part of a sample that, as a whole, favours compounds with a hit. Of some 83,000 tested, about 20% had one in any assay.
Lab note: cut-off is 90%. Strictly less in growth is MET. Exactly 90% or more is NOT MET.

A selection of reference data follows.
1. O=C(C(Br)Br)C(Br)C(Br)c1ccccc1 (configuration not stated) : NOT MET
2. Nc1nc(N)c([N+](=O)[O-])c(=O)[nH]1 : MET
3. c1ccc(-n2nnnc2-c2cccc3ccccc23)cc1 : MET
4. N#CCNc1ccccc1N : MET
5. CCN(CC)c1ccc(C(O)C2=CC(=O)c3ccccc3C2=O)cc1 (configuration not stated) : MET
6. CC12CCCCC1C(C(N)=O)C(=O)O2 (configuration not stated) : NOT MET

Query: In the record for CN1CCN(Cc2ccc(NC(=O)c3[nH]ncc3Nc3ccnc4ccnn34)cc2)CC1 , is growth less than 90%?
Response: NOT MET

Query: In the record for NC(=O)N/N=C/c1ccc(Br)o1 , is growth less than 90%?
Response: NOT MET
